Kindly state logD7.4 for each of the entries shown.
Test: Octanol/PBS partition coefficient (logD7.4)
Format: physicochemical
Details: n-octanol/PBS pH 7.4, radiolabeled compound
Non-standard residues stand in square brackets, D forms with d. Residues, ends and D or L forms follow the SMILES beside them. Groups on a side chain read outwards from the residue. *: point of attachment. X6 = CN1/C(=C/C=C/C=C/C2=[N+](CCCCCC(=O)*)c3ccc(S(=O)(=O)[O-])cc3C2(C)C)C(C)(C)c2cc(S(=O)(=O)O)ccc21; X9 = NCCNCC(CNCCN)C(=O)NC[C@@H](NC(=O)CC[C@@H](NC(=O)N[C@H](CCC(=O)O)C(=O)O)C(=O)O)C(=O)*; DOTA = O=C(O)CN1CCN(CC(=O)O)CCN(CC(=O)*)CCN(CC(=O)O)CC1; Tyr(3-I) = N[C@@H](Cc1ccc(O)c(I)c1)C(=O)O; dTyr(3-I) = N[C@H](Cc1ccc(O)c(I)c1)C(=O)O; 2Nal = N[C@@H](Cc1ccc2ccccc2c1)C(=O)O; d2Nal = N[C@H](Cc1ccc2ccccc2c1)C(=O)O; dNMeOrn = CN[C@H](CCCN)C(=O)O; 4Abz = Nc1ccc(C(=O)O)cc1; dDap = NC[C@@H](N)C(=O)O; Ahx = NCCCCCC(=O)O

Query: Supply logD7.4 value. Item: C[C@@H](NC(=O)[C@@H](CCCNC(=N)N)NC(=O)[C@@H](CN)NC(=O)CCCCC[N+]1=C(/C=C/C=C/C=C2/N(C)c3ccc(S(=O)(=O)O)cc3C2(C)C)C(C)(C)c2cc(S(=O)(=O)[O-])ccc21)C(=O)Nc1ccc(C(=O)NCCC[C@@H]2C(=O)N[C@@H](CCCNC(=N)N)C(=O)N[C@H](Cc3ccc4ccccc4c3)C(=O)NCC(=O)N[C@@H](Cc3ccc(O)c(I)c3)C(=O)N2C)cc1 [CXCR4-OI-2] (cyclo([Tyr(3-I)][dNMeOrn]([4Abz-dA-dR-dDap-X6])R[d2Nal]G))
Result: −1.83 ± 0.02 (5)

Query: Give logD7.4 for C[C@@H](NC(=O)[C@@H](CCCNC(=N)N)NC(=O)[C@@H](CN)NC(=O)CN1CCN(CC(=O)O)CCN(CC(=O)O)CCN(CC(=O)O)CC1)C(=O)Nc1ccc(C(=O)NCCC[C@@H]2C(=O)N[C@@H](CCCNC(=N)N)C(=O)N[C@@H](Cc3ccc4ccccc4c3)C(=O)NCC(=O)N[C@H](Cc3ccc(O)c(I)c3)C(=O)N2C)cc1 [CXCR4-DOTA-4 [Ga]] (cyclo([dTyr(3-I)][dNMeOrn]([4Abz-dA-dR-dDap-DOTA])R[2Nal]G))
Result: −2.65 ± 0.22 (6)

Query: Quickly give me recorded logD7.4 for C[C@@H](NC(=O)[C@@H](CCCNC(=N)N)NC(=O)[C@@H](CN)NC(=O)CN1CCN(CC(=O)O)CCN(CC(=O)O)CCN(CC(=O)O)CC1)C(=O)Nc1ccc(C(=O)NCCC[C@@H]2C(=O)N[C@@H](CCCNC(=N)N)C(=O)N[C@@H](Cc3ccc4ccccc4c3)C(=O)NCC(=O)N[C@H](Cc3ccc(O)c(I)c3)C(=O)N2C)cc1 [CXCR4-DOTA-4 [Lu]] (cyclo([dTyr(3-I)][dNMeOrn]([4Abz-dA-dR-dDap-DOTA])R[2Nal]G))
Result: −2.89 ± 0.10 (6)

Query: Quote logD7.4 reported for C[C@@H](NC(=O)[C@@H](CCCNC(=N)N)NC(=O)[C@@H](CN)NC(=O)CCCCCNC(=O)[C@@H](CNC(=O)C(CNCCN)CNCCN)NC(=O)CC[C@@H](NC(=O)N[C@H](CCC(=O)O)C(=O)O)C(=O)O)C(=O)Nc1ccc(C(=O)NCCC[C@@H]2C(=O)N[C@@H](CCCNC(=N)N)C(=O)N[C@@H](Cc3ccc4ccccc4c3)C(=O)NCC(=O)N[C@H](Cc3ccc(O)cc3)C(=O)N2C)cc1 [Tc-CXCR4-16] (cyclo([2Nal]G[dY][dNMeOrn]([4Abz-dA-dR-dDap-Ahx-X9])R)) please.
Result: −2.70 ± 0.04 (8)

Query: Report measured logD7.4; entry is C[C@@H](NC(=O)[C@@H](CCCNC(=N)N)NC(=O)[C@@H](CN)NC(=O)CCCCCNC(=O)[C@@H](CNC(=O)CC[C@H](C(=O)O)N1CCN(CC(=O)O)CCN(CC(=O)O)CCN(CC(=O)O)CC1)NC(=O)C[N+](C)(C)Cc1ccc([Si](F)(C(C)(C)C)C(C)(C)C)cc1)C(=O)Nc1ccc(C(=O)NCCC[C@@H]2C(=O)N[C@@H](CCCNC(=N)N)C(=O)N[C@@H](Cc3ccc4ccccc4c3)C(=O)NCC(=O)N[C@H](Cc3ccc(O)cc3)C(=O)N2C)cc1 [CXCR4-SiFA-6 [Lu]]
Result: −0.85 ± 0.04 (6)
